reported.metric: pKi
Notebook: values listed as pKi are -log10 of the concentration (mol/L).

Task: // lookup pKi | system=human 5-HT6 receptor (Homo sapiens, UniProt P50406) | key= `CN1CCOc2ccc3c(ccn3S(=O)(=O)c3ccc4ncsc4c3)c2C1`
Result: 9.00

Task: // lookup pKi | system=human 5-HT6 receptor (Homo sapiens, UniProt P50406) | key= `O=S(=O)(c1ccccc1)n1ccc2c3c(ccc21)OCCNC3`
Result: 8.70

All values here come from patent US7960374B2.
